Hey, just so you know, these numbers are from PubChem BioAssay (NCI).

Tested on: K-562 leukemia
Experiment: NCI-60 one-dose screen, 48 h (100 = growth as untreated, 0 = no growth, -100 = all killed)
Details: 10 µM unless noted
Procedure: Cells are grown in 96 well plates and exposed to the test compound for 48 hours. Compounds are tested at a single concentration, which is 10^-5 M for most compounds. The reported endpoint is percent growth (GI% or GIPRCNT), where numbers from 0 - 100% represent growth inhibition, and numbers from -100% - 0 represent cell death. For example, a value of 40 represents 60% growth inhibition. A value of 0 means no net growth occurred over the course of the experiment. […]
The panel holds about 83,000 compounds, 20% with a hit somewhere; the sample as a whole holds those more often.
experimental readout: growth (%)
State just the number; it will be interpreted in %.

Worked cases, answers included:
Request: Test system K-562 leukemia; read-out growth; what value for "Cc1ccc(-c2nc(N3CCN(CC(=O)Nc4ccc(Cl)c(C(F)(F)F)c4)CC3)c3ccccc3n2)cc1" ?
Result: 69

Request: // lookup growth | system=K-562 leukemia | key= "COc1ccc(-n2c(N)c(-c3nc4ccccc4[nH]3)cc(C#N)c2=O)cc1"
Result: 93.5

Request: Item "Cc1c(C(=O)/C=C/Nc2c(Cl)cc(S(N)(=O)=O)cc2Cl)sc2nc3ccccc3n12" with K-562 leukemia - growth?
Result: 105

Request: Identify the measured growth of "O=C(CCN1C(=O)/C(=C/c2ccc(O)cc2)SC1=S)Nc1ccc(Cl)cc1" for K-562 leukemia.
Result: 89.7

Request: Query the reported growth for K-562 leukemia; item: NC[C@@H]1O[C@H](O[C@@H]2[C@@H](CO)OC(O[C@@H]3[C@@H](O)[C@H](N)C[C@H](N)[C@H]3OC3O[C@H](CN)[C@@H](O)[C@H](O)[C@H]3N)[C@@H]2O)[C@H](N)[C@@H](O)[C@@H]1O (stereo partly drawn)
Result: 113

---
Request: Give growth (K-562 leukemia) of the following compound: "Nc1nn(C(=O)Nc2ccc(Cc3ccccc3)cc2)c2ccc(Cl)cc12"
Result: 3.86

Request: Which measured growth belongs to NC1=C(c2nn[nH]n2)C(c2ccccc2Cl)c2ccc3ccccc3c2O1 (stereo not drawn) , tested on K-562 leukemia?
Result: 22.6

Request: Which growth is reported with K-562 leukemia for this entry: "Cc1nn(-c2ccccc2)c(-n2ccnc2)c1/C=N/Nc1nc(-c2ccc(Cl)c(Cl)c2)cs1" ?
Result: 18.7

====

Test system: COLO 205 colon
Assay: NCI-60 one-dose screen, 48 h (100 = growth as untreated, 0 = no growth, -100 = all killed)
Details: 10 µM unless noted
About 83,000 compounds went through this panel and 20% of them were active in at least one assay; those are over-represented in the sample as a whole.
experimental readout: growth (%)
Kindly answer with a numeric value in %, unit omitted.

Request: Entry O=C(CS(=O)c1oc(-c2cccs2)nc1S(=O)(=O)c1ccc(Br)cc1)c1ccccc1 (stereo not given) : reported growth = ?
Result: 106

Request: Bench note: what growth did "Cc1ccc(/C=N\NC(=O)c2[nH]c3ccc(F)cc3c2-c2ccccc2)cc1" show?
Result: -78.8

Request: Item under review: "NCCCNc1nc2ccc(Cl)cc2c2c(=O)c3cc(F)ccc3sc12" . Reported growth?
Result: 31.9

Request: Given the entry Cc1cccc2c3c(sc12)C(c1ccc(Cl)cc1)C(C#N)=C(N)O3 (stereo not given) , report its measured growth.
Result: -21.2

Request: For the compound shown here, "COc1ccc(/C=N/Nc2cc(=O)[nH]c3ccc(Cl)cc23)cc1" , give the reported growth.
Result: 83.3

Request: # input compound: "NS(=O)(=O)c1ccc(-n2nc(-c3ccc(Cl)cc3)c3ccccc3c2=O)cc1" ; wanted: its growth
Result: 111

Request: # input compound: "CCCCCCCCCCCCCCCCCCOc1ccccc1CC(=O)OCC[N+](CC)(CC)CC" ; wanted: its growth
Result: -27.3

Request: Please report the recorded growth for "COc1cc(/C=C/C(=O)/C=C/c2cc(OC)c3c(c2OC)OCO3)c(OC)c2c1OCO2" .
Result: 13.3

Request: Data request, read-out growth, for "COc1cc(CCCO)c(OC)c(OC)c1OC"
Result: 122

Request: Which measured growth value corresponds to "CCOC(=O)c1nc(Nc2ccc(C(C)=O)cc2)sc1C" ?
Result: 106

====

Test system: HCT-116 colon
Assay: NCI-60 one-dose screen, 48 h (100 = growth as untreated, 0 = no growth, -100 = all killed)
Settings: 10 µM unless noted
Compounds without any hit were thinned out: in the full panel of roughly 83,000, 20% have a hit.
Response field label takes 1 when growth is strictly below 30% and -1 in all other cases.

Take a look at these entries with their results.
Request: I'd appreciate it if you could check whether "CCCCCCNC(=O)Oc1ccc(/C(=C(\C)c2ccc(Cl)cc2)c2ccc(OCCCN(C)C)cc2)cc1" has growth smaller than 30%.
Result: -1

Request: Lab note: growth threshold 30%. Does this molecule come in strictly under it? "O=[N+]([O-])c1ccccc1NCSc1ccc(Cl)cc1"
Result: -1

Request: Please let me know if "O=S(=O)(Nc1ccc(-c2nc(-c3cccc(OCCN4CCOCC4)c3)c(-c3ccnc(Br)c3)[nH]2)cc1)c1ccccc1" shows growth below 30%.
Result: 1

Request: Dear colleague, could you confirm whether growth of "Oc1c(I)cc(I)cc1CNCCCN(Cc1ccccn1)Cc1ccccn1" falls below 30%? Thanks.
Result: 1

New cases:
Request: Given the entry "NCCCNc1nc2ccccc2c2c(=O)c3cccc(F)c3sc12" , would its reported growth be below 30%?
Result: 1

Request: Check if growth falls below 30% for "CCC(C)(c1cc(C(C)(C)C)c(O)c(C(C)(C)C)c1)c1cc(C(C)(C)C)c(O)c(C(C)(C)C)c1" .
Result: -1

Request: hey, is growth for COc1ccc(-c2cc3c4c(nc5ccccc5c4c2)CC(c2cc(OC)c(OC)c(OC)c2)O3)cc1 (centres undefined) lower than 30% or not?
Result: 1

Request: Regarding "NCCCNc1nc2ccccc2c2c(=O)c3cc(OC(F)(F)F)ccc3sc12" , kindly confirm whether its growth is beneath 30%.
Result: 1

Request: I'd appreciate it if you could check whether "CCc1cccc2c1S/C(=C/c1ccc(OC)cc1)C2=O" has growth smaller than 30%.
Result: -1

Request: # check: growth < 30% for "N#C/C(=C\c1ccc(F)cc1)n1nc2cccc(F)c2n1"
Result: 1

Request: Does the reported growth of "CCc1ccccc1-n1c(N)c(C#N)c(-c2ccc(Cl)cc2)c(C#N)c1=O" stay below 30%?
Result: -1

Request: Strictly below 30% in growth? "O=C(/C=C/c1cccc2ccccc12)c1ccc(NC(=O)c2ccccc2CN2C(=O)c3ccccc3C2=O)cc1"
Result: -1

Request: Lab note: confirm whether the reported growth for this molecule is below 30%, equality not counting. molecule: "C(=N/Nc1ncnc2nc[nH]c12)/c1ccccn1"
Result: 1

Request: # TODO verify growth < 30% strictly for this molecule: "O=C(S)CNC(=O)c1ccccc1"
Result: -1

Request: Hi there! Is growth for "[O-][n+]1c2ccccc2[n+]([O-])c2c3ccccc3[nH]c21" below 30%, do you know?
Result: 1

====

Tested on: ACHN renal
Test: NCI-60 one-dose screen, 48 h (100 = growth as untreated, 0 = no growth, -100 = all killed)
Settings: 10 µM unless noted
Description: Growth inhibition of the ACHN human tumor cell line is measured as a screen for anti-cancer activity. Cells are grown in 96 well plates and exposed to the test compound for 48 hours. Compounds are tested at a single concentration, which is 10^-5 M for most compounds. The reported endpoint is percent growth (GI% or GIPRCNT), where numbers from 0 - 100% represent growth inhibition, and numbers from -100% - 0 represent cell death. For example, a value of 40 represents 60% growth inhibition. […]
Compounds without any hit were thinned out: in the full panel of roughly 83,000, 20% have a hit.
Lab note - cut at 90% for growth: TRUE if strictly below, FALSE if not.

# count of solved cases: 8
Request: Consider "COc1cc(C(=O)c2cc(C)c3[nH]c4ccc(O)cc4c3c2C)cc(OC)c1OC" . Does its growth lie strictly below 90%?
Result: TRUE

Request: Is the reported growth for "COc1c(B(O)O)cc(F)cc1-c1nc2ccc3[nH]ncc3c2c2c1CCCC2" strictly below 90%?
Result: TRUE

Request: Lab note: growth threshold 90%. Does this compound come in strictly under it? "CCc1ccc(Oc2c(-c3ccc(OCc4ccc(Cl)cc4)cc3O)nn(C)c2C(F)(F)F)cc1"
Result: TRUE

Request: growth under 90%? Item: "CCOC(=O)Nc1ccc(-c2nc(-c3cccc(OC)c3)c(-c3ccnc(Br)c3)[nH]2)cc1"
Result: TRUE

Request: Please indicate whether the reported growth of "COc1cc(CNS(=O)(=O)c2ccc(C)cc2)ccc1OCc1cn(-c2ccccc2)nn1" is strictly below 90%.
Result: FALSE

Request: Strictly below 90% in growth? "Fc1cc(-c2nnc3sc(-c4ccc(Cl)cc4Cl)nn23)c(Cl)cc1Cl"
Result: TRUE

Request: Does this compound meet the criterion growth < 90%? "O=C(CSc1nc2ccccc2[nH]1)Nc1cccc(Cl)c1"
Result: FALSE

Request: Identify whether the compound Cc1cccc(OCC(O)CN2CCN(c3ccc(Cl)cc3)CC2)c1 (stereo unspecified) records growth below 90%.
Result: FALSE

***
Request: growth under 90%? Item: "Cc1[nH]c(C(=O)Nc2ccc(C(=O)NCCN)cc2OC(C)C)c(Cl)c1Cl"
Result: TRUE

Request: Field: below-cutoff. Rule: recorded growth strictly less than 90%. Subject: "COc1ccc(C(=O)C[C@]2(O)C(=O)Nc3c(Cl)ccc(Cl)c32)cc1"
Result: TRUE

Request: is_below(growth, 90%) for "COc1ccc(OC)c(/C=C/c2nnc(Nc3ccccc3)o2)c1" ?
Result: FALSE

Request: Is growth strictly under 90% for the entry "COc1ccc(-c2[nH]c3ccc(OC)cc3c2/C=C(\C#N)S(=O)(=O)c2ccccc2)cc1" ?
Result: TRUE

Request: Dear colleague, could you confirm whether growth of "CCN(CC)CCCNc1nc2ccccc2c2c(=O)c3cc(Cl)ccc3sc12" falls below 90%? Thanks.
Result: TRUE

Request: Say whether its growth is strictly beneath 90%. Entry: "C(=N/Nc1ncnc2nc[nH]c12)/c1ccccn1"
Result: TRUE

Request: Decide: growth of "COc1ccc(OC)c(/C=C2\Oc3cc(OCCN4CCC(Cc5ccccc5)CC4)ccc3C2=O)c1" strictly below 90%?
Result: FALSE

Request: Quick check: does "COc1ccc(-c2ncnc3c2ncn3CC#CCCl)cc1" have growth under 90%?
Result: TRUE

Request: Here's an entry: "COc1ccc(-c2cc(-c3ccc(Cl)cc3)c(C#N)c(=O)n2CCCCCC(=O)Nc2ccccc2N)cc1" . Is its growth below 90%?
Result: TRUE

Request: Dear reviewer, please state whether "CC(C)C(=O)Nc1ccc(-c2nc(-c3cccc(OCCN4CCOCC4)c3)c(-c3ccnc(Br)c3)[nH]2)cc1" has growth strictly beneath 90%.
Result: TRUE

Request: Is 90% strictly greater than the compound's reported growth? compound: "CCCCCCN(CCCCCC)c1ccc(/C=C2/SC(=O)NC2=O)c(C)c1"
Result: FALSE
